# Test system: Escherichia coli TOP10
# test.method.notes: shrunken log2 fold change of peptide-encoding DNA abundance (4.5 h post-induction vs induction); higher = less antimicrobial activity (less host growth inhibition)
# condition.description: time post-induction: 4.5 h; library: site-saturation at positions 5, 18, 19, 20
Some sequences, each annotated with its measured shrunken log2 fold change.
Answer with the value's number alone.

Some entries whose results are on file:
# seq.string, metric.name, value.observed
measured = [
    ("RRIRVRPPRLPRPRPRPCRRPRP", "shrunken log2 fold change", -0.299),
    ("RRIRKRPPRLPRPRPRPNRCPRP", "shrunken log2 fold change", 0.0393),
    ("RRIRHRPPRLPRPRPRPQTIPRP", "shrunken log2 fold change", -0.793),
    ("RRIRMRPPRLPRPRPRPSWIPRP", "shrunken log2 fold change", 0.0389),
    ("RRIRTRPPRLPRPRPRPFHNPRP", "shrunken log2 fold change", -0.31),
]

Query string: Please tell me the measured shrunken log2 fold change for RRIRTRPPRLPRPRPRPQTYPRP ; system: Escherichia coli TOP10.
Result string: -0.0726

Query string: State measured shrunken log2 fold change of the sequence RRIRVRPPRLPRPRPRPMSVPRP with Escherichia coli TOP10.
Result string: 0.0581

Query string: Jot down shrunken log2 fold change (Escherichia coli TOP10) of RRIRDRPPRLPRPRPRPSCWPRP .
Result string: 0.585

Query string: Provide shrunken log2 fold change, tested on Escherichia coli TOP10, for RRIRTRPPRLPRPRPRPSGVPRP .
Result string: 0.00112

Query string: GET shrunken log2 fold change where system = Escherichia coli TOP10 and item = RRIRQRPPRLPRPRPRPWEIPRP
Result string: -0.00822

Query string: Please report the measured shrunken log2 fold change for RRIRKRPPRLPRPRPRPRCRPRP tested on Escherichia coli TOP10.
Result string: 0.506

Query string: Please indicate recorded shrunken log2 fold change of RRIRQRPPRLPRPRPRPEEQPRP measured with Escherichia coli TOP10.
Result string: 0.39

Query string: With Escherichia coli TOP10 as the test system, provide measured shrunken log2 fold change for this sequence: RRIRNRPPRLPRPRPRPWRKPRP
Result string: -0.0392

Query string: Recall the reported shrunken log2 fold change of RRIRIRPPRLPRPRPRPNAPPRP on Escherichia coli TOP10 and write it down.
Result string: 0.00635

Query string: Please indicate recorded shrunken log2 fold change of RRIRYRPPRLPRPRPRPTNLPRP measured with Escherichia coli TOP10.
Result string: -0.661

Query string: Under Escherichia coli TOP10: report shrunken log2 fold change of RRIRPRPPRLPRPRPRPMTEPRP .
Result string: -0.0153

Query string: Name the value of shrunken log2 fold change reported for RRIRERPPRLPRPRPRPMIWPRP when tested on Escherichia coli TOP10.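 Note: peptides expressed intracellularly from a pBAD plasmid library in pooled LB shake-flask culture, induced with 0.3% L-arabinose, DNA abundance read by NGS, three biological replicates, DESeq2 with apeglm shrinkage.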
Result string: -0.21
